- Test system: UO-31;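 note: cell viability assay measuring inhibition of cell growth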
- Method Description: cells
- Assay type: functional, cell-based
- Recorded Conditions: Homo sapiens
- Description: SANGER: Inhibition of human U031 cell growth in a cell viability assay.
Would you kindly list pIC50 for each of these compounds?
Give bare numbers, as −log10 of the molar value.

Please look at the items below and tell me pIC50 for each one, in order.
1. Cn1c(=O)n(-c2ccc(C(C)(C)C#N)cc2)c2c3cc(-c4cnc5ccccc5c4)ccc3ncc21
2. C/C=C(/C)C(=O)O[C@H]1C(C)=C2[C@H]([C@@H]1OC(=O)CCCCCCC)[C@@](C)(OC(C)=O)C[C@H](OC(=O)CCC)[C@@]1(O)[C@H]2OC(=O)[C@@]1(C)O
3. CO[C@@]12[C@H](COC(N)=O)C3=C(C(=O)C(C)=C(N)C3=O)N1C[C@@H]1N[C@@H]12
4. N#C/C(=C1/Nc2ccccc2S1)c1ccnc(NCCc2cccnc2)n1
5. CC(C)=CC[C@@H](O)C1=CC(=O)c2c(O)ccc(O)c2C1=O

7.01
7.24
6.44
5.14
6.11
